# Assay system: Receptor-type tyrosine-protein phosphatase C (Homo sapiens); further: in other assays of this panel Not Active means under 50% inhibition at 10 µM;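 further: inhibition of CD45 enzyme activity measured using DiFMUP as substrate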
# Sequence (P08575 whole entry): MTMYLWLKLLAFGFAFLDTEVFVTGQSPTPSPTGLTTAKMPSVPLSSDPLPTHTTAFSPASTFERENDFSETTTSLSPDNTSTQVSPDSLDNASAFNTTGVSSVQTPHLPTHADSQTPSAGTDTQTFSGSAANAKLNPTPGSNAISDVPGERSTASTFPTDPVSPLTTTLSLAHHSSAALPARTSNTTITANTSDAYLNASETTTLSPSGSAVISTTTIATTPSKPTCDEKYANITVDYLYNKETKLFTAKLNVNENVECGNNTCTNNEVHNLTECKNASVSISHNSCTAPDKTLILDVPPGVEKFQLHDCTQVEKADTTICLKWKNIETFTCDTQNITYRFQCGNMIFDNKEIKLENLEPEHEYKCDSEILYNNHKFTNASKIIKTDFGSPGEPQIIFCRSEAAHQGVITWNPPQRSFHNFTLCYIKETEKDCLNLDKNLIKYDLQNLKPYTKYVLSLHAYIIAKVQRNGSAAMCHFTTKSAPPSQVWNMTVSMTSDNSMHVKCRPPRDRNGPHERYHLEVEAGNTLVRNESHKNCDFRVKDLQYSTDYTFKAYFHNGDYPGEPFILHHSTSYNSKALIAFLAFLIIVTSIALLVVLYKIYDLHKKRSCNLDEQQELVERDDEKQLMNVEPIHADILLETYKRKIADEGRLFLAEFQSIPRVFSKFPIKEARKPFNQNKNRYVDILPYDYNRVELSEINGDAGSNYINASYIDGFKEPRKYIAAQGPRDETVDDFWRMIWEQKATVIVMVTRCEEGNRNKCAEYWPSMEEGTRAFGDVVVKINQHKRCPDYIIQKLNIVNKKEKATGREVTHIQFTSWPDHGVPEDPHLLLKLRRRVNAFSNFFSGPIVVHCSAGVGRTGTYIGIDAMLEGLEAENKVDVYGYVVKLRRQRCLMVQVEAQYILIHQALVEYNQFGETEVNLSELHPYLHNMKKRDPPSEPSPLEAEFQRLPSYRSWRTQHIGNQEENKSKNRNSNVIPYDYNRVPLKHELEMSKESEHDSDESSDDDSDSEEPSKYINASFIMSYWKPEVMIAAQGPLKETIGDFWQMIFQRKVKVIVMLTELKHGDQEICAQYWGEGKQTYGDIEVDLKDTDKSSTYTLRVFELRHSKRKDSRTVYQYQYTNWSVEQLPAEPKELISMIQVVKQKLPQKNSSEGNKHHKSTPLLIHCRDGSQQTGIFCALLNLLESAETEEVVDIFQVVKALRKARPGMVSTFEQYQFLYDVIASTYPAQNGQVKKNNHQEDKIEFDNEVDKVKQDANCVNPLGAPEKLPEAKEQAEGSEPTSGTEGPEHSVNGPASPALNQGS
# Design: species or system Escherichia coli
Metric name: IC50

Record excerpt, results attached:
Substance	IC50
CISPLATIN	Not Active
IVERMECTIN	Not Active
OXALIPLATIN	Not Active
CARBOPLATIN	Not Active

The record that follows has no IC50 shown yet.
[Q] Tell me measured IC50 for GOLD SODIUM THIOMALATE please.
[A] Not Active

* * *

# Assay details: DRUGMATRIX: Sodium/nucleoside co-transporter radioligand binding (ligand: nitrobenzylthioinosine)
# Format: cell membranes, Cavia porcellus, Dunkin-Hartley, Cerebral cortex, Membrane
# Recorded conditions: Not Active = under 50% inhibition at 10 µM
Metric name: Ki

Compound	Experimental value
CN(C)[C@@H]1C(O)=C(C(N)=O)C(=O)[C@@]2(O)C(O)=C3C(=O)c4c(O)cccc4[C@@](C)(O)[C@H]3[C@H](O)[C@@H]12 [OXYTETRACYCLINE]	Not Active
Nc1nnc(-c2cccc(Cl)c2Cl)c(N)n1 [LAMOTRIGINE]	Not Active
COC(=O)c1ccc(O)cc1 [METHYLPARABEN]	Not Active
O=C(O)c1cn(C2CC2)c2cc(N3CCNCC3)c(F)cc2c1=O [CIPROFLOXACIN]	Not Active
O=C1OC2(c3ccc(O)cc3Oc3cc(O)ccc32)c2ccccc21 [FLUORESCEIN]	Not Active
NCC(=O)O [GLYCINE]	Not Active
CN1C[C@H](C(=O)N[C@]2(C)O[C@@]3(O)[C@@H]4CCCN4C(=O)[C@H](Cc4ccccc4)N3C2=O)C=C2c3cccc4[nH]cc(c34)C[C@H]21 [ERGOTAMINE]	Not Active
CC[C@H]1OC(=O)[C@H](C)[C@@H](O[C@H]2C[C@@](C)(OC)[C@@H](O)[C@H](C)O2)[C@H](C)[C@@H](O[C@@H]2O[C@H](C)C[C@H](N(C)C)[C@H]2O)[C@](C)(O)C[C@@H](C)/C(=N\OCOCCOC)[C@H](C)[C@@H](O)[C@]1(C)O [ROXITHROMYCIN]	Not Active
CNCCC=C1c2ccccc2CCc2ccccc21 [NORTRIPTYLINE]	Not Active
CC(C)[C@H](N)C(=O)OCCOCn1cnc2c(=O)nc(N)[nH]c21 [VALACYCLOVIR]	Not Active

[Q] Given NNC(=O)c1ccncc1 [ISONIAZID] , respond with its Ki.
[A] Not Active

[Q] For the compound CCC1(c2ccccc2)C(=O)NCNC1=O [PRIMIDONE] , give its measured Ki value.
[A] Not Active

[Q] Report measured Ki; entry is C[C@]12CCC(=O)C=C1CC[C@@H]1[C@@H]2C(=O)C[C@@]2(C)[C@H]1CC[C@]2(O)C(=O)CO [CORTISONE]
[A] Not Active

[Q] Answer with the recorded Ki for the compound listed here: Cc1ccccc1N1CCN(CCc2nnc3n2CCCC3)CC1 [DAPIPRAZOLE]
[A] Not Active

[Q] Give Ki for the following compound: Cc1ncc([N+](=O)[O-])n1CC(C)O (configuration not stated) [SECNIDAZOLE]
[A] Not Active

[Q] Give the reported Ki for this compound. CC[C@@]1(O)C(=O)OCc2c1cc1n(c2=O)Cc2cc3ccccc3nc2-1 [CAMPTOTHECIN]
[A] Not Active

[Q] Return the recorded Ki value; entry: Nc1ccc(S(N)(=O)=O)cc1 [SULFANILAMIDE]
[A] Not Active
